meta.source: patent US11840528B2

Parameter Fold increase h-GABA-A α5β3γ2 oocyte: see the listing below.
target_entity: h-GABA-A α5β3γ2 (Homo sapiens, UniProt P18507+P31644)
Sequence (P31644 32-462): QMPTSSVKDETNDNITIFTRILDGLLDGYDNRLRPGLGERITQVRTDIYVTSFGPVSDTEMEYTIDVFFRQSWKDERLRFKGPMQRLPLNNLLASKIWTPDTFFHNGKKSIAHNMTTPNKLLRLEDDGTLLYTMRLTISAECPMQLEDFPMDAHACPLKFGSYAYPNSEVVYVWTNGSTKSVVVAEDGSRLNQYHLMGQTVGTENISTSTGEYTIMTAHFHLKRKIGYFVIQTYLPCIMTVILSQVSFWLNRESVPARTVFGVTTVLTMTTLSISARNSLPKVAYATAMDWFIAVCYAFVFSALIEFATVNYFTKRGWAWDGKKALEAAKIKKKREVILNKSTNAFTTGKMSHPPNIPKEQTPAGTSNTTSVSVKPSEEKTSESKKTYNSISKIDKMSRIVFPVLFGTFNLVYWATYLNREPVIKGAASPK
Sequence (P28472 26-473 partner): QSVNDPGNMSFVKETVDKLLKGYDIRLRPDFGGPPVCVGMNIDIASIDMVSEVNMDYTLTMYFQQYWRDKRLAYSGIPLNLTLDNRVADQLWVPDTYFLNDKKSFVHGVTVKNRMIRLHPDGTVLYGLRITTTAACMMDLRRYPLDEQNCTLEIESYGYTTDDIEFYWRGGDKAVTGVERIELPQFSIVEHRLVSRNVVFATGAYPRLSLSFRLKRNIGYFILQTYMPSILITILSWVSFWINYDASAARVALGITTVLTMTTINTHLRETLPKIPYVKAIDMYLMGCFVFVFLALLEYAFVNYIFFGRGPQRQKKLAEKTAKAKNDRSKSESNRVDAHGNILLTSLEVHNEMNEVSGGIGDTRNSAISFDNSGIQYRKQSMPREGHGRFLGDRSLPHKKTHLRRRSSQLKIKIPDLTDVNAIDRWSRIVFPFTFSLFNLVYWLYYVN
Sequence (P18507 40-475): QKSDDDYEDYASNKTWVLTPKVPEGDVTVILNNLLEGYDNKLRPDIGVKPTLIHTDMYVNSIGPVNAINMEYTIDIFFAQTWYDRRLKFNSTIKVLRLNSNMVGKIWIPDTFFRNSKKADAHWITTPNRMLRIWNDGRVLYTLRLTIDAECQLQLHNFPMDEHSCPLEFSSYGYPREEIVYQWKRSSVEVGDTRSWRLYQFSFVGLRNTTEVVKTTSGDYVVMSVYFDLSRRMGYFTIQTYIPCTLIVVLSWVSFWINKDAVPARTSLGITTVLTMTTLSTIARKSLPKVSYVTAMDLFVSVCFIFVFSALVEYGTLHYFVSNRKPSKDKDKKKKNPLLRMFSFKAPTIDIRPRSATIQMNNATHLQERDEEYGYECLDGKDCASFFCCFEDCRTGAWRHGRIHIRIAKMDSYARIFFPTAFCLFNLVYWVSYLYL
assay_method_text: Two-electrode voltage clamp electrophysiology in Xenopus laevis oocytes expressing GABAA receptors, modulation of GABA EC20 current
Format: cell-based
Parameters: host or cells: Xenopus laevis oocytes micro-injected with RNA transcripts of the subunits
measurement_setup: test compound at approx. 30 fold its Ki, GABA at EC20; Table 1
Please respond with just the number, no unit label.

Sample answers from the record:
Cc1ccc(-c2noc(C)c2Cn2ncc(N3CC(Oc4cccc(F)c4)C3)cc2=O)cn1 = 2.53
Cc1ccc(-c2noc(C)c2Cn2ncc(-c3ccc(OC(F)F)nc3)cc2=O)cn1 = 1.89
COC1CN(c2cnn(Cc3c(-c4ccc(C)nn4)noc3C)c(=O)c2)C1 = 1.97
Cc1ccc(-c2noc(C)c2Cn2ncc(N3CC4(CCCCO4)C3)cc2=O)nn1 = 1.77
Cc1ccc(-c2noc(C)c2Cn2ncc(N3CC(OC(C)(C)C)C3)cc2=O)cn1 = 1.85

Task: Reported Fold increase h-GABA-A α5β3γ2 oocyte for Cc1onc(-c2ccc(Cl)nc2)c1Cn1ncc(N2C[C@@H](O)[C@H]2C)cc1=O : what is it?
Result: 1.68

Task: Reported Fold increase h-GABA-A α5β3γ2 oocyte for Cc1ccc(-c2noc(C)c2Cn2ncc(-c3ccnc(C)c3)cc2=O)cn1 : what is it?
Result: 2.36

Task: Reported Fold increase h-GABA-A α5β3γ2 oocyte for CC(=O)N(C)[C@H]1CCN(c2cnn(Cc3c(-c4ccc(C)nc4)noc3C)c(=O)c2)C1 : what is it?
Result: 1.63

Task: Reported Fold increase h-GABA-A α5β3γ2 oocyte for Cc1onc(-c2ccc(Cl)nc2)c1Cn1ncc(N2CC3(CCCO3)C2)cc1=O : what is it?
Result: 1.94

Task: Reported Fold increase h-GABA-A α5β3γ2 oocyte for Cc1ccc(-c2noc(C)c2Cn2ncc(-c3cc(F)cnc3Cl)cc2=O)cn1 : what is it?
Result: 2.8

Task: Reported Fold increase h-GABA-A α5β3γ2 oocyte for Cc1onc(-c2ccc(C(F)(F)F)nn2)c1Cn1ncc(N2CC3(CCCCO3)C2)cc1=O : what is it?
Result: 1.9

Task: Reported Fold increase h-GABA-A α5β3γ2 oocyte for Cc1ccc(-c2noc(C)c2Cn2ncc(N3CC(OCC(F)F)C3)cc2=O)nn1 : what is it?
Result: 2.01

Task: Reported Fold increase h-GABA-A α5β3γ2 oocyte for Cc1onc(-c2ccc(Cl)nc2)c1Cn1ncc(N2CC3(C[C@@H](F)CO3)C2)cc1=O : what is it?
Result: 2.27

Task: Reported Fold increase h-GABA-A α5β3γ2 oocyte for Cc1onc(-c2ccc(Cl)nn2)c1Cn1ncc(N2CC3(C2)CC(F)(F)CO3)cc1=O : what is it?
Result: 1.7

Task: Reported Fold increase h-GABA-A α5β3γ2 oocyte for Cc1ccc(-c2noc(C)c2Cn2ncc(-c3cnn(CC4CC4)c3)cc2=O)cn1 : what is it?
Result: 1.86

Task: Reported Fold increase h-GABA-A α5β3γ2 oocyte for CCO[C@H]1CN(c2cnn(Cc3c(-c4ccc(C)nc4)noc3C)c(=O)c2)[C@H]1C : what is it?
Result: 2.31

Task: Reported Fold increase h-GABA-A α5β3γ2 oocyte for Cc1onc(-c2ccc(C(F)(F)F)nc2)c1Cn1ncc(N2CCN(C(=O)C3(C)CC3)CC2)cc1=O : what is it?
Result: 3.5

====

target_entity: h-GABA-A α5β3γ2 (Homo sapiens, UniProt P18507+P31644)
assay_method_text: Two-electrode voltage clamp electrophysiology in Xenopus laevis oocytes expressing GABAA receptors, modulation of GABA EC20 current
Type: cell-based
Parameters: host or cells: Xenopus laevis oocytes micro-injected with RNA transcripts of the subunits
measurement_setup: % modulation of GABA EC20 = 100*(Fold increase-1); Table 1
Parameter Efficacy (GABA) %: see the listing below.

Sample answers from the record:
C[C@@H]1CN(c2cnn(Cc3c(-c4ccc(Cl)cn4)noc3C3CC3)c(=O)c2)C[C@H](C)O1 = 166%
Cc1ccc(-c2noc(C)c2Cn2ncc(N3CC(Oc4ccc(F)cc4)C3)cc2=O)cn1 = 152%
Cc1ccc(-c2noc(C)c2Cn2ncc(N3CC(OCC(F)(F)F)C3)cc2=O)cn1 = 96%

Task: Hi! What's the reported Efficacy (GABA) % for Cc1ccc(-c2noc(C)c2Cn2ncc(N3CC4(CNC4)C3)cc2=O)cn1 on h-GABA-A α5β3γ2 (Homo sapiens, UniProt P18507+P31644)?
Result: 149%

Task: Hi! What's the reported Efficacy (GABA) % for Cc1ccc(-c2noc(C)c2Cn2ncc(N3C[C@H]4CC[C@@H](C3)O4)cc2=O)cn1 on h-GABA-A α5β3γ2 (Homo sapiens, UniProt P18507+P31644)?
Result: 136%

====

target_entity: h-GABA-A α5β3γ2 (Homo sapiens, UniProt P18507+P31644)
assay_method_text: Two-electrode voltage clamp electrophysiology in Xenopus laevis oocytes expressing GABAA receptors, modulation of GABA EC20 current
Format: cell-based
Set-up: host or cells: Xenopus laevis oocytes micro-injected with RNA transcripts of the subunits
measurement_setup: % modulation of GABA EC20 = 100*(Fold increase-1); Table 1
Parameter Efficacy (GABA) %: see the listing below.
Note: state the figure and append the unit.

Sample answers from the record:
Cc1ccc(-c2noc(C)c2Cn2ncc(N3CCOCC3)cc2=O)cn1 = 166%
Cc1onc(-c2ccc(Cl)nc2)c1Cn1ncc(N2CC3(C2)CC(F)(F)CO3)cc1=O = 85%
Cc1ccc(-c2noc(C)c2Cn2ncc(N3CC(Oc4cccnc4)C3)cc2=O)cn1 = 134%
Cc1ccc(-c2noc(C)c2Cn2ncc(-c3ccnc(N(C)C)c3)cc2=O)cn1 = 66%
Cc1ccc(-c2noc(C)c2Cn2ncc(-c3ccnc(C)c3)cc2=O)cn1 = 136%
Cc1onc(-c2ccc(C(F)(F)F)nn2)c1Cn1ncc(N2CC3(CC[C@@H](F)CO3)C2)cc1=O = 105%

Task: Reported Efficacy (GABA) % for Cc1ccc(-c2noc(C)c2Cn2ncc(N3CC(C)(O)C3)cc2=O)cn1 : what is it?
Result: 132%

Task: Reported Efficacy (GABA) % for Cc1ccc(-c2noc(C)c2Cn2ncc(N3CCN[C@H](C)C3)cc2=O)cn1 : what is it?
Result: 187%

Task: Reported Efficacy (GABA) % for Cc1ccc(-c2noc(C)c2Cn2ncc(N3CC(OC(C)(C)C)C3)cc2=O)nn1 : what is it?
Result: 93%

Task: Reported Efficacy (GABA) % for CO[C@H]1CN(c2cnn(Cc3c(-c4ccc(Cl)nc4)noc3C)c(=O)c2)[C@H]1C : what is it?
Result: 112%

Task: Reported Efficacy (GABA) % for Cc1ccc(-c2noc(C)c2Cn2ncc(N3CCOC(C)(C)C3)cc2=O)cn1 : what is it?
Result: 145%

====

Parameter Fold increase h-GABA-A α5β3γ2 oocyte: see the listing below.
target_entity: h-GABA-A α5β3γ2 (Homo sapiens, UniProt P18507+P31644)
assay_method_text: Two-electrode voltage clamp electrophysiology in Xenopus laevis oocytes expressing GABAA receptors, modulation of GABA EC20 current
Type: cell-based
Design: host or cells: Xenopus laevis oocytes micro-injected with RNA transcripts of the subunits
measurement_setup: test compound at approx. 30 fold its Ki, GABA at EC20; Table 1
Please respond with just the number, no unit label.

Cc1ccc(-c2noc(C)c2Cn2ncc(N3CC4(CC(C)CCO4)C3)cc2=O)nn1 (single isomer, unassigned) [Example 318] = 2.11
C[C@@H]1CN(c2cnn(Cc3c(-c4ccc(Cl)cn4)noc3C3CC3)c(=O)c2)C[C@H](C)O1 = 2.66

Task: Reported Fold increase h-GABA-A α5β3γ2 oocyte for CCOC1CN(c2cnn(Cc3c(-c4cnc(C)c(F)c4)noc3C)c(=O)c2)C1 : what is it?
Result: 2.08

Task: Reported Fold increase h-GABA-A α5β3γ2 oocyte for Cc1onc(-c2ccc(Cl)nc2)c1Cn1ncc(N2CCC3(CCO3)CC2)cc1=O : what is it?
Result: 2.44

====

Parameter Fold increase h-GABA-A α5β3γ2 oocyte: see the listing below.
target_entity: h-GABA-A α5β3γ2 (Homo sapiens, UniProt P18507+P31644)
assay_method_text: Two-electrode voltage clamp electrophysiology in Xenopus laevis oocytes expressing GABAA receptors, modulation of GABA EC20 current
Assay type: cell-based
Design: host or cells: Xenopus laevis oocytes micro-injected with RNA transcripts of the subunits
measurement_setup: test compound at approx. 30 fold its Ki, GABA at EC20; Table 1
Please respond with just the number, no unit label.

Sample answers from the record:
Cc1onc(-c2ccc(Cl)nc2)c1Cn1ncc(N2CC(OCC(F)F)C2)cc1=O = 2.06
Cc1onc(-c2ccc(Cl)cn2)c1Cn1ncc(N2CC3(C2)CN(C2CC2)C3)cc1=O = 1.87
Cc1ccc(-c2noc(CF)c2Cn2ncc(N3C[C@@H](C)O[C@@H](C)C3)cc2=O)cn1 = 2.73

Please turn your attention to the following entry.
Task: Reported Fold increase h-GABA-A α5β3γ2 oocyte for Cc1ccc(-c2noc(C)c2Cn2ncc(N3CCN4C(=O)OCC4C3)cc2=O)cn1 (stereo not shown) : what is it?
Result: 2.81
